assay.target: Platelet-derived growth factor receptor alpha (Homo sapiens)
Sequence (P16234 whole entry): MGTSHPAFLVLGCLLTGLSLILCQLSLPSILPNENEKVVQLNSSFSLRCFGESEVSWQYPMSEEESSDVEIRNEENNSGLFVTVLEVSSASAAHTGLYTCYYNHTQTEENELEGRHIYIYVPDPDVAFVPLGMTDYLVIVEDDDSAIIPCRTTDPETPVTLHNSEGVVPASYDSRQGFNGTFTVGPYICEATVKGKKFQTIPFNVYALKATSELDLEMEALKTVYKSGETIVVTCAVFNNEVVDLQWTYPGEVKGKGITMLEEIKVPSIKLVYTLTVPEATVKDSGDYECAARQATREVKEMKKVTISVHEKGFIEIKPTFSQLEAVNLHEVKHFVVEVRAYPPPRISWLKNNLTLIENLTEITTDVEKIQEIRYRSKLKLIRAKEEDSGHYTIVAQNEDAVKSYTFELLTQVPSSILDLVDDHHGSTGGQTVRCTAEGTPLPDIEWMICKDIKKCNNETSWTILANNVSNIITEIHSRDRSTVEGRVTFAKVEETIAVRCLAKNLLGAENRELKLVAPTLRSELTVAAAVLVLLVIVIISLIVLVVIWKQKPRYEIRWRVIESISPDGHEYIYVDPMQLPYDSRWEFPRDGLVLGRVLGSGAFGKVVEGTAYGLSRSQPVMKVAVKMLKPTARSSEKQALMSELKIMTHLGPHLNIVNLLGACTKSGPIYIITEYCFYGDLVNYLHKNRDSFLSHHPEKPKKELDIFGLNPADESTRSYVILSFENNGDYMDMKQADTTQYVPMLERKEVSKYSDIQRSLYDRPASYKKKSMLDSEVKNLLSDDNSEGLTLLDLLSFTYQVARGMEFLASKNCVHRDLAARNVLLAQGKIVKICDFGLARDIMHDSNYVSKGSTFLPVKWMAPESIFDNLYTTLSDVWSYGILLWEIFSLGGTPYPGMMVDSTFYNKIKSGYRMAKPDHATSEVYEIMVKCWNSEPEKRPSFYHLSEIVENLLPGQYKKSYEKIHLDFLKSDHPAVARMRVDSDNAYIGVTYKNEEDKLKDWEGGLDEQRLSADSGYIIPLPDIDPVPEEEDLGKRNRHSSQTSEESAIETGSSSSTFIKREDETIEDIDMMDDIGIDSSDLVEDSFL
experiment.description: Inhibition of full length GST-tagged human recombinant PDGFRalpha expressed in baculovirus using Fluorescein-Poly GT as substrate at 100 nM
Give inhibition for every item shown.
Answers are plain numbers, in %.

Example results:
compound	unit.string	experimental.value
COC(=O)c1cc2cc(CCc3cc(NC(=O)c4ccc(CN5CCN(C)CC5)cc4)ccc3C)cnc2[nH]1	%	99
COC(=O)c1cc2cc(NCc3cc(NC(=O)c4ccc(O)c(C(F)(F)F)c4)ccc3C)cnc2[nH]1	%	74

Working through the 6 compounds below one at a time, give inhibition for each.
1. COC(=O)c1cc2cc(NC(=O)c3cc(NC(=O)c4ccc(CN5CCC(N(C)C)C5)c(C(F)(F)F)c4)ccc3C)cnc2[nH]1 (stereo unspecified)
2. COC(=O)c1cc2cc(NCc3cc(NC(=O)c4ccc(Cl)c(C(F)(F)F)c4)ccc3C)cnc2[nH]1
3. CC(=O)c1cc2cc(NCc3cc(NC(=O)c4ccc(CN5CCC(N(C)C)C5)c(C(F)(F)F)c4)ccc3C)cnc2[nH]1 (stereo unspecified)
4. Cc1ccc(NC(=O)c2ccc(CN3CCN(C)CC3)cc2)cc1CNc1cnc2[nH]c(C(=O)O)cc2c1
5. COC(=O)c1cc2cc(NCc3cc(NC(=O)c4cccc(OC(F)(F)F)c4)ccc3C)cnc2[nH]1
6. CC(=O)c1cc2cc(CCc3cc(NC(=O)c4ccc(CN5CCN(C)CC5)cc4)ccc3C)cnc2[nH]1

94
71
73
79
66
86

The reported measurements were obtained from ChEMBL document CHEMBL3808348.
